The measurements presented in this section are drawn from the supplement of paper PMC10567573.

B1: LOXL2 (parent)
chain: RLLRFSSQIHNNGQSDFRPKNGRH

- Variants of: B1
- assayProcedure: protein stability index of a GFP-peptide fusion (GPS, HEK-293T) (PSI 1-6); higher = more stable;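 further: lentivirally expressed fusions sorted by FACS into six bins by GFP to DsRed ratio, PSI derived from sequencing read proportions per bin multiplied by bin number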
- testContext: c terminus: a fixed tail appended
experimentalEndpoint: protein stability index

> print(dat)
    mutantname     experimentalendpoint  measurednumber
 1        G13N  protein stability index            2.94
 2         F5K  protein stability index            3.29
 3         S6C  protein stability index            3.08
 4        N12D  protein stability index            3.69
 5         L3K  protein stability index            3.84
 6        P19K  protein stability index            2.71
 7         F5C  protein stability index            3.06
 8        P19S  protein stability index            2.98
 9         L3H  protein stability index            3.79
10        R18N  protein stability index            2.87
11        N21A  protein stability index            2.82
12        R23P  protein stability index            2.46
13         L3Q  protein stability index            3.99
14        P19C  protein stability index            2.52
15        N11L  protein stability index            2.69
16        G22T  protein stability index            2.39
17        N21M  protein stability index            2.27
18        H10M  protein stability index            2.47
19         L2T  protein stability index            4.69
20         Q8R  protein stability index            2.91
21        R23I  protein stability index            1.82
22        S15Q  protein stability index            2.77
23        G13Y  protein stability index            2.09
24        G22H  protein stability index             2.4
25         S6A  protein stability index            2.65
26         I9P  protein stability index            3.44
27         R4V  protein stability index            2.62
28         R4T  protein stability index            3.09
29        R18F  protein stability index             2.6
30        G22L  protein stability index            2.49
31        H24A  protein stability index            2.88
32        F17W  protein stability index            2.32
33        R23M  protein stability index            1.84
34        N11A  protein stability index            2.84
35         L3I  protein stability index            3.14
36         F5L  protein stability index            2.54
37        D16K  protein stability index            1.94
38        Q14C  protein stability index             2.3
39        R18P  protein stability index            2.83
40        F17I  protein stability index            3.38
41        H24F  protein stability index            2.38
42        F17V  protein stability index            2.95
43        N11G  protein stability index            2.23
44         L3C  protein stability index            2.88
45        H24D  protein stability index            2.86
46         S6Y  protein stability index            2.89
